- Test system: Avian myeloblastosis virus
- EXPERIMENTAL PROTOCOL: Inhibition of AMV reverse transcriptase activity assessed as incorporation of dTMP in poly(rA)-oligo(dT) at 100 uM
- Design: scale not given: the % may be the effect or the level left
ENDPOINT NAME: Activity (%)

INSERT INTO assay_data (structure_as_smiles, endpoint_name, result_number) VALUES
  ('O=C(O)C[C@H]1C(=O)O[C@H]2[C@H](OC(=O)c3cc(O)c(O)c(O)c3)[C@@H](OC(=O)c3cc(O)c(O)c4c3[C@H]1[C@H](O)C(=O)O4)[C@H](OC(=O)c1cc(O)c(O)c(O)c1)O[C@@H]2COC(=O)c1cc(O)c(O)c(O)c1', 'Activity', 24),
  ('O=C1OC[C@H]2O[C@@H](O)[C@H](O)[C@@H](O)[C@@H]2OC(=O)c2cc(O)c(O)c(O)c2-c2c(O)c(O)c3oc(=O)c4c(c(O)c(O)c5oc(=O)c2c3c54)-c2c1cc(O)c(O)c2O', 'Activity', 8),
  ('COc1cc2c[n+](C)c3c4cc5c(cc4ccc3c2cc1OC)OCO5', 'Activity', 1);
